test system: LOC_OS02G45750-cb003; test: thermal shift delta Tm vs DMSO control; higher = stronger stabilization (binding); conditions: 12.5 µM; protein concentration 2 µM;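 further: purified Escherichia coli-expressed rice kinase domain construct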

{"columns": ["compound", "units-text", "thermal shift delta Tm"],
 "data": [
  ["NC(=O)c1ncn([C@@H]2O[C@H](CO)[C@@H](O)[C@H]2O)c1N [AICAR (Acadesine)]", "°C", 0.81],
  ["O=C(NOCC(O)CO)c1cc(Br)c(F)c(F)c1Nc1ccc(I)cc1F (stereo not drawn)", "°C", -0.49],
  ["C[C@H](NC(=O)c1c(N)nn2cccnc12)c1cc2cccc(C#Cc3cnn(C)c3)c2c(=O)n1-c1ccccc1", "°C", 1.18],
  ["COc1cc2c(c(OC)c1OC)-c1c(cc3c(c1OC)OCO3)CC(C)C(C)C2 (stereo not drawn) [Schisandrin B (Sch B)]", "°C", -0.1],
  ["COc1ccc(CNC(=O)Nc2ncc([N+](=O)[O-])s2)cc1", "°C", 0.37],
  ["CC1(COc2ccc3c(c2)ncn3-c2ccc3cccc(N4CCC(N)CC4)c3n2)COC1", "°C", 16.4],
  ["CC(C)Oc1ccc(-c2nn([C@@H](C)c3oc4ccc(F)cc4c(=O)c3-c3cccc(F)c3)c3ncnc(N)c23)cc1F", "°C", -0.54],
  ["O=C(NCCO)c1cccc(-c2cc(Nc3ccc(OC(F)(F)F)cc3)ncn2)c1", "°C", -1.95],
  ["CC(C)(O)CNc1ncc(-c2ccnc(Nc3ccncc3)n2)c(CC2CC2)n1 [VPS34 inhibitor 1 (Compound 19, PIK-III analogue)]", "°C", 2.27],
  ["CCC(=O)Nc1cccc(Oc2nc(Nc3ccc(N4CCN(C)CC4)cc3OC)ncc2Cl)c1", "°C", 1.13],
  ["O=c1cc(N2CCOCC2)oc2c(-c3ccccc3)cccc12", "°C", 0.29],
  ["C[C@@H](Oc1cc(-n2cnc3ccc(CN4CCN(C)CC4)cc32)sc1C(N)=O)c1ccccc1C(F)(F)F", "°C", 0.36],
  ["C[C@H](Nc1ncnc2[nH]cnc12)c1cc2ccc(F)cc2nc1-c1ccccn1", "°C", 0.75]
]}
